Measured Solubilities in hydrochloric acid of pH 4, listed per entry for reference.
Experiment: Determination of solubility in hydrochloric acid solution of pH 4.0 (saturated solution, HPLC)
Assay type: physicochemical
Details: ultrasonic 1 hour
quantity-kind: Solubilities in hydrochloric acid of pH 4 (mg/ml)

# compound, measure-unit, value
data = [
    ("N#CNC(=Nc1ccncc1)NCCCCCCOc1ccc(F)cc1Cl [compound 7]", "mg/ml", 0.09993),
    ("N#CNC(=Nc1ccncc1)NCCCCCOc1c(Cl)cc(Cl)cc1Cl [compound 16]", "mg/ml", 0.01753),
    ("N#CNC(=Nc1ccncc1)NCCCCCCOc1c(Cl)cccc1Cl [compound 9]", "mg/ml", 0.05331),
    ("COc1ccccc1OCCCCCCCCNC(=Nc1ccncc1)NC#N [compound 14]", "mg/ml", 0.1481),
    ("N#CN=C(NCCCCCCCCCCCCNC(=NC#N)Nc1ccncc1)Nc1ccncc1 [compound 4]", "mg/ml", 0.00052),
    ("N#CNC(=Nc1ccncc1)NCCCCCCOc1ccccc1OC(F)(F)F [compound 10]", "mg/ml", 0.01965),
    ("N#CNC(=Nc1ccncc1)NCCCCCCOc1c(Cl)cc(Cl)cc1Cl [compound 17]", "mg/ml", 0.00669),
    ("N#CNC(=Nc1ccncc1)NCCCCCCOC(=O)c1ccc(Cl)cc1 [compound 6]", "mg/ml", 0.00225),
    ("N#CNC(=Nc1ccncc1)NCCCCCOc1ccc(Cl)cc1Cl [compound 15]", "mg/ml", 0.000829),
]
